Every entry's value here was drawn from ChEMBL document CHEMBL5365420.

Molecular target: Metallo-beta-lactamase type 2 (Bacteria, UniProt C7C422)
Sequence (C7C422 whole entry): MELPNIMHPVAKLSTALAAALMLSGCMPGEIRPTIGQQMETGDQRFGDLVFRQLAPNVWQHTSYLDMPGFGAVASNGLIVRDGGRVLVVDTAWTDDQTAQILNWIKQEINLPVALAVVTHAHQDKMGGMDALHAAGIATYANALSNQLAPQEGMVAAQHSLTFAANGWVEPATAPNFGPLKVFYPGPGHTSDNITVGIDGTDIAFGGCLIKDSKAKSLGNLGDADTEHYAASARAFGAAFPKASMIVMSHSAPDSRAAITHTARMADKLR
Threshold-based label: IC50 under 2 µM gives met, IC50 not under 2 µM gives not met.

Challenge: Regarding O=S(=O)(Nc1cccc2cccnc12)c1cccc(F)c1 , kindly confirm whether its IC50 is beneath 2 µM.
Response given: not met

Challenge: Regarding O=C(O)c1ccc2cccc(NS(=O)(=O)c3ccc(C(F)(F)F)cc3[N+](=O)[O-])c2n1 , kindly confirm whether its IC50 is beneath 2 µM.
Response given: met

Challenge: Regarding CON(C)C(=O)c1ccccn1 , kindly confirm whether its IC50 is beneath 2 µM.
Response given: not met

Challenge: Regarding O=C(O)c1ccc2c(Cl)ccc(NS(=O)(=O)c3ccccn3)c2n1 , kindly confirm whether its IC50 is beneath 2 µM.
Response given: met

Challenge: Regarding O=C(O)c1ccc2c(Cl)c(Cl)cc(NS(=O)(=O)c3ccccn3)c2n1 , kindly confirm whether its IC50 is beneath 2 µM.
Response given: met

Challenge: Regarding O=C(O)c1ccc2cccc(NS(=O)(=O)c3cccc([N+](=O)[O-])c3)c2n1 , kindly confirm whether its IC50 is beneath 2 µM.
Response given: met

Challenge: Regarding Cc1ccc2cccc(O)c2n1 [8-HYDROXY QUINALDINE] , kindly confirm whether its IC50 is beneath 2 µM.
Response given: not met

Challenge: Regarding O=C(O)c1ccc2cccc(NS(=O)(=O)c3ccc(Cl)cc3)c2n1 , kindly confirm whether its IC50 is beneath 2 µM.
Response given: met

Challenge: Regarding COC(=O)c1ccc2cccc(NS(=O)(=O)c3cccc(F)c3)c2n1 , kindly confirm whether its IC50 is beneath 2 µM.
Response given: met

Challenge: Regarding O=C(O)c1ccc2cccc(NS(=O)(=O)Cc3ccccc3)c2n1 , kindly confirm whether its IC50 is beneath 2 µM.
Response given: met

Challenge: Regarding Cc1ccc2cccc(NS(=O)(=O)c3cccc(F)c3)c2n1 , kindly confirm whether its IC50 is beneath 2 µM.
Response given: met

Challenge: Regarding CONC(=O)c1ccccn1 , kindly confirm whether its IC50 is beneath 2 µM.
Response given: not met

Challenge: Regarding O=C(O)c1ccc2cccc(O)c2n1 , kindly confirm whether its IC50 is beneath 2 µM.
Response given: not met

Challenge: Regarding Oc1c(I)cc(I)c2cccnc12 , kindly confirm whether its IC50 is beneath 2 µM.
Response given: not met

Challenge: Regarding COC(=O)c1ccc2cccc(NS(C)(=O)=O)c2n1 , kindly confirm whether its IC50 is beneath 2 µM.
Response given: not met

Challenge: Regarding CS(=O)(=O)Nc1cccc2c(-c3cccc(N)c3)cc(C(=O)O)nc12 , kindly confirm whether its IC50 is beneath 2 µM.
Response given: met

Challenge: Regarding O=C(O)c1ccc2cccc(NS(=O)(=O)c3cccc4cccnc34)c2n1 , kindly confirm whether its IC50 is beneath 2 µM.
Response given: met

Challenge: Regarding O=C(O)c1ccc2cccc(NS(=O)(=O)C(F)(F)F)c2n1 , kindly confirm whether its IC50 is beneath 2 µM.
Response given: met

Challenge: Regarding O=C(O)c1ccc2cccc(NS(=O)(=O)c3c(Cl)cc(Cl)cc3Cl)c2n1 , kindly confirm whether its IC50 is beneath 2 µM.
Response given: met

Challenge: Regarding Cc1ccc2cccc(NS(=O)(=O)c3ccccc3)c2n1 , kindly confirm whether its IC50 is beneath 2 µM.
Response given: met

Challenge: Regarding O=C(NOCc1ccccc1)c1cccc(C(=O)NOCc2ccccc2)n1 , kindly confirm whether its IC50 is beneath 2 µM.
Response given: not met

Challenge: Regarding O=C(O)c1ccc2c(I)cc(I)c(NS(=O)(=O)c3ccccc3)c2n1 , kindly confirm whether its IC50 is beneath 2 µM.
Response given: not met

Challenge: Regarding CS(=O)(=O)Nc1ccc(-c2cccc(N)c2)c2ccc(C(=O)O)nc12 , kindly confirm whether its IC50 is beneath 2 µM.
Response given: not met

###

Assignment: determine reported inhibition for the given compounds.
Target: 72 kDa type IV collagenase (Homo sapiens)
Sequence (P08253 110-660 limits assumed): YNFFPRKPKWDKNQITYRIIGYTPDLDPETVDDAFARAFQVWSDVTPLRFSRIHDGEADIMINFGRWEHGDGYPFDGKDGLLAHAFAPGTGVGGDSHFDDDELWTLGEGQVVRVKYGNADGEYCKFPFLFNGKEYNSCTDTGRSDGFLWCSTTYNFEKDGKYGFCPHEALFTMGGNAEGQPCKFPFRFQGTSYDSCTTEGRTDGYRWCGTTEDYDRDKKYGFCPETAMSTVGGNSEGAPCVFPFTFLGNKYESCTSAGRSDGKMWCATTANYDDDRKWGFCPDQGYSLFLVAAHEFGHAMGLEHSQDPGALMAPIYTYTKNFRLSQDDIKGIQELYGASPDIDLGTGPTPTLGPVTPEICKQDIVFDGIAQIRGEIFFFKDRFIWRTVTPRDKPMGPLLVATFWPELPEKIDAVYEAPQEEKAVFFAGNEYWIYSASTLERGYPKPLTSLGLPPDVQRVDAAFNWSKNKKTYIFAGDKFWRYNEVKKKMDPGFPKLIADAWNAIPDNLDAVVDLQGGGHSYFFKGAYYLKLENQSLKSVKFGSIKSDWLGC
Experiment: Inhibition of human recombinant MMP-2 CD at 10 uM using OMNIMMP as substrate incubated for 30 mins by fluorescence based analysis relative to control

Challenge: Give a short answer stating reported inhibition for O=C(NOCc1ccccc1)c1cccc(C(=O)NOCc2ccccc2)n1 .
Response given: < 5%

Challenge: Give a short answer stating reported inhibition for CS(=O)(=O)Nc1cccc2c(Cl)cc(C(=O)O)nc12 .
Response given: 90%

Challenge: Give a short answer stating reported inhibition for CS(=O)(=O)Nc1cccc2ccc(C(=O)O)nc12 .
Response given: > 90%

Challenge: Give a short answer stating reported inhibition for O=C([O-])CN(CCN(CC(=O)[O-])CC(=O)O)CC(=O)O.[Na+].[Na+] .
Response given: 23%

Challenge: Give a short answer stating reported inhibition for CS(=O)(=O)Nc1cc(Cl)c(Cl)c2ccc(C(=O)O)nc12 .
Response given: 91%

Challenge: Give a short answer stating reported inhibition for O=C(O)c1ccc2cccc(NS(=O)(=O)c3cccc4cccnc34)c2n1 .
Response given: > 90%

Challenge: Give a short answer stating reported inhibition for C[C@H](CS)C(=O)N1CCC[C@H]1C(=O)O .
Response given: < 5%

Challenge: Give a short answer stating reported inhibition for O=C(O)c1ccc2c(-c3ccccc3)ccc(NS(=O)(=O)c3ccccn3)c2n1 .
Response given: > 90%

###

Target: UniProtKB P08253
Assay: Inhibition of human recombinant MMP-2 CD at 10 uM using OMNIMMP as substrate incubated for 30 mins by fluorescence based analysis relative to control
Endpoint label: inhibition

Challenge: Give a short answer stating reported inhibition for O=C(O)c1ccc2cccc(NS(=O)(=O)c3ccccn3)c2n1 .
Response given: > 90%

Challenge: Give a short answer stating reported inhibition for CS(=O)(=O)Nc1ccc(I)c2ccc(C(=O)O)nc12 .
Response given: 94%

Challenge: Give a short answer stating reported inhibition for O=C(O)c1ccc2cccc(NS(=O)(=O)c3ccc(C(F)(F)F)cc3[N+](=O)[O-])c2n1 .
Response given: > 90%

Challenge: Give a short answer stating reported inhibition for O=C(O)c1ccc2c(I)cc(I)c(O)c2n1 .
Response given: 5%

Challenge: Give a short answer stating reported inhibition for O=C(O)c1ccc2c(Cl)cc(Cl)c(O)c2n1 .
Response given: 20%

Challenge: Give a short answer stating reported inhibition for O=C(O)c1ccc2ccc3c(c2n1)NS(=O)(=O)c1ccc(C(F)(F)F)cc1-3 .
Response given: > 90%

Challenge: Give a short answer stating reported inhibition for O=C(O)c1ccc2cccc(O)c2n1 .
Response given: < 5%

Challenge: Give a short answer stating reported inhibition for O=C(O)c1cccc(C(=O)O)n1 .
Response given: < 5%

Challenge: Give a short answer stating reported inhibition for O=C(O)c1cc(-c2ccccc2)c2cccc(NS(=O)(=O)c3ccccn3)c2n1 .
Response given: > 90%

Challenge: Give a short answer stating reported inhibition for CS(=O)(=O)Nc1ccc(-c2cccc(N)c2)c2ccc(C(=O)O)nc12 .
Response given: 95%

Challenge: Give a short answer stating reported inhibition for O=C(O)c1ccc2cccc(NS(=O)(=O)c3ccccc3)c2n1 .
Response given: > 90%

###

Molecular target: Metallo-beta-lactamase type 2 (Bacteria, UniProt C7C422)
Endpoint label: Kd
Please state the number and follow it with the unit.

Challenge: Give a short answer stating reported Kd for O=C(O)c1ccc2cccc(NS(=O)(=O)c3ccccn3)c2n1 .
Response given: 14.1 µM

###

Assay: Selectivity ratio of Ki for human recombinant MMP-2 CD to Ki for C-terminal 6His-tagged full length NDM-1 (unknown origin)
Endpoint label: Ratio Ki
Write the value as a bare number.

Challenge: Give a short answer stating reported Ratio Ki for O=C(O)c1ccc2cccc(NS(=O)(=O)c3ccc(C(F)(F)F)cc3[N+](=O)[O-])c2n1 .
Response given: 3

Challenge: Give a short answer stating reported Ratio Ki for CS(=O)(=O)Nc1cccc2ccc(C(=O)O)nc12 .
Response given: 5

Challenge: Give a short answer stating reported Ratio Ki for O=C(O)c1ccc2cccc(NS(=O)(=O)c3cccc4cccnc34)c2n1 .
Response given: 50

Challenge: Give a short answer stating reported Ratio Ki for O=C(O)c1ccc2cccc(NS(=O)(=O)c3ccccn3)c2n1 .
Response given: 40

Challenge: Give a short answer stating reported Ratio Ki for O=C(O)c1ccc2cccc(NS(=O)(=O)c3ccccc3)c2n1 .
Response given: 6

Challenge: Give a short answer stating reported Ratio Ki for O=C(O)c1ccc2ccc3c(c2n1)NS(=O)(=O)c1ccc(C(F)(F)F)cc1-3 .
Response given: 135

###

Assay: Inhibition of VIM-2 (unknown origin) incubated for 15 mins by absorbance based microplate reader analysis
Parameters: species or system Bacteria
Endpoint label: pIC50
Keep it numeric: pIC50 is minus log10 of the concentration in mol/L.

Challenge: Give a short answer stating reported pIC50 for O=C(O)c1cc(-c2ccccc2)c2cccc(NS(=O)(=O)c3ccccn3)c2n1 .
Response given: 6.21

Challenge: Give a short answer stating reported pIC50 for O=C(O)c1ccc2c(Cl)cc(Cl)c(O)c2n1 .
Response given: 6.80

Challenge: Give a short answer stating reported pIC50 for O=C(O)c1ccc2cccc(O)c2n1 .
Response given: 6.21

Challenge: Give a short answer stating reported pIC50 for CS(=O)(=O)Nc1cccc2ccc(C(=O)O)nc12 .
Response given: 6.10

Challenge: Give a short answer stating reported pIC50 for O=C(O)c1ccc2cccc(NS(=O)(=O)c3ccc(C(F)(F)F)cc3[N+](=O)[O-])c2n1 .
Response given: 6.42

Challenge: Give a short answer stating reported pIC50 for CS(=O)(=O)Nc1cccc2c(Cl)cc(C(=O)O)nc12 .
Response given: 6.33

Challenge: Give a short answer stating reported pIC50 for O=C(O)c1ccc2cccc(NS(=O)(=O)c3ccccn3)c2n1 .
Response given: 6.62

Challenge: Give a short answer stating reported pIC50 for O=C(O)c1ccc2c(-c3ccccc3)ccc(NS(=O)(=O)c3ccccn3)c2n1 .
Response given: 6.40

Challenge: Give a short answer stating reported pIC50 for O=C(O)c1cccc(C(=O)O)n1 .
Response given: 6.35

Challenge: Give a short answer stating reported pIC50 for O=C(O)c1ccc2cccc(NS(=O)(=O)c3ccccc3)c2n1 .
Response given: 6.37

Challenge: Give a short answer stating reported pIC50 for CS(=O)(=O)Nc1cc(Cl)c(Cl)c2ccc(C(=O)O)nc12 .
Response given: 6.33
